# target or test system: T1, human ACVR2A (human, UniProt P27037 20-135, limits assumed); note: test concentration or dose not given here
# T1 construct: also called activin receptor, type II A
# T1 sequence (P27037 20-135 limits assumed): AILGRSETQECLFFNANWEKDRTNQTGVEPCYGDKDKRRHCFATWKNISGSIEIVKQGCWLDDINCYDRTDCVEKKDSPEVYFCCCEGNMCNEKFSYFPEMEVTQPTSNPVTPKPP
# protocol text: ELISA
readout type: optical density (OD)
Just the number please, in OD, no unit attached.

Record excerpt, results attached:
binder	readout type	unit abbrev	value reported
371_F07 (antibody, V domains shown, Group II) VH: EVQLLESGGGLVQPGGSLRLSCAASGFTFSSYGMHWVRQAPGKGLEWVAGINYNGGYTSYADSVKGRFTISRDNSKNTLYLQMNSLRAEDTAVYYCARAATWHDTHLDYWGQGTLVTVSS VL: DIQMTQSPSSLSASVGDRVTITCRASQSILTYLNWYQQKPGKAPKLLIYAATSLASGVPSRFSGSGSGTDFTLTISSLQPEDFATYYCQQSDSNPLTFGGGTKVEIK	optical density	OD	2.78
365_F03 (antibody, V domains shown, Group III) VH: EVQLLESGGGLVQPGGSLRLSCAASGFTFDSYSMNWVRQAPGKGLEWVSSINYNGGYTSYADSVKGRFTISRDNSKNTLYLQMNSLRAEDTAVYYCARGANWHDTHLDYWGQGTLVTVSS VL: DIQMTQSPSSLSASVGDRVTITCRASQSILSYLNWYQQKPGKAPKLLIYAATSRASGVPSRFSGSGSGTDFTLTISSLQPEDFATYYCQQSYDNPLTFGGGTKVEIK	optical density	OD	2.63

For record 372_D07 (antibody, V domains shown, Group II) VH: EVQLLESGGGLVQPGGSLRLSCAASGFTFSSYGMNWVRQAPGKGLEWVAGINYNGGYTSYADSVKGRFTISRDNSKNTLYLQMNSLRAEDTAVYYCARAATWHDTHLDYWGQGTLVTVSS VL: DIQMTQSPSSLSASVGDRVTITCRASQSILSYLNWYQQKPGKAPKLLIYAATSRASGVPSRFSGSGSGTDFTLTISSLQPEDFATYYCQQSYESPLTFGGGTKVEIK the listed optical density is 2.68

# optical density (binder: 367_G11 (antibody, V domains shown, Group II) VH: EVQLLESGGGLVQPGGSLRLSCAASGFTFSSYGMHWVRQAPGKGLEWVASINYNGGYTSYADSVKGRFTISRDNSKNTLYLQMNSLRAEDTAVYYCARAATWHDTHLDYWGQGTLVTVSS VL: DIQMTQSPSSLSASVGDRVTITCRASQSILTYLNWYQQKPGKAPKLLIYAATSRHSGVPSRFSGSGSGTDFTLTISSLQPEDFATYYCQQSDDSPLTFGGGTKVEIK ) is 2.56

Lookup result for 375_A04 (antibody, V domains shown, Group I) VH: EVQLLESGGGLVQPGGSLRLSCAASGFTFDSYGMNWVRQAPGKGLEWVAGINYNGGYKSYADSVKGRFTISRDNSKNTLYLQMNSLRAEDTAVYYCARAANWHDTALDYWGQGTLVTVSS VL: DIQMTQSPSSLSASVGDRVTITCRASQSILTYLNWYQQKPGKAPKLVIYYVNNLPSGVPSRFSGSGSGTDFTLTISSLQPEDFATYYCQQSYNSPLTFGGGTKVEIK ; measured optical density: 3.72

Lab note: 368_D06 (antibody, V domains shown, Group II) VH: EVQLLESGGGLVQPGGSLRLSCAASGFTFSSYGMNWVRQAPGKGLEWVSNINYNGGYTGYADSVKGRFTISRDNSKNTLYLQMNSLRAEDTAVYYCARAATWHDTHLDYWGQGTLVTVSS VL: DIQMTQSPSSLSASVGDRVTITCRASQSILSYVNWYQQKPGKAPKLVIYAATSRHSGVPSRFSGSGSGTDFTLTISSLQPEDFATYYCQQSYENPLTFGGGTKVEIK gave optical density of 2.03

The binder 376_D08 (antibody, V domains shown, Group II) VH: EVQLLESGGGLVQPGGSLRLSCAASGFTFDSYGMNWVRQAPGKGLEWVANINYNSGYKSYADSVKGRFTISRDNSKNTLYLQMNSLRAEDTAVYYCARAATWHDTALDYWGQGTLVTVSS VL: DIQMTQSPSSLSASVGDRVTITCRASQSILTYLNWYQQKPGKAPKLVIYYANNRPSGVPSRFSGSGSGTDFTLTISSLQPEDFATYYCQQSYSNPLTFGGGTKVEIK showed optical density equal to 3.81

Record 368_D09 (antibody, V domains shown, Group I) VH: EVQLLESGGGLVQPGGSLRLSCAASGFTFDSYGMHWVRQAPGKGLEWVAGINYNSGYKSYADSVKGRFTISRDNSKNTLYLQMNSLRAEDTAVYYCARAANWHDTHLDYWGQGTLVTVSS VL: DIQMTQSPSSLSASVGDRVTITCRASQSIVSYVNWYQQKPGKAPKLLIYAATSLASGVPSRFSGSGSGTDFTLTISSLQPEDFATYYCQQSYDNPLTFGGGTKVEIK , field optical density: 2.19

The recorded optical density for 368_B04 (antibody, V domains shown, Group II) VH: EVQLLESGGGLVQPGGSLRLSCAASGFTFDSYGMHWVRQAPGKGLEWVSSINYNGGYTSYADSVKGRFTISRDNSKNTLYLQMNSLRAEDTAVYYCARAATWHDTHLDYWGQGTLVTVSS VL: DIQMTQSPSSLSASVGDRVTITCRASQSIVSYLNWYQQKPGKAPKLVIYAATSRASGVPSRFSGSGSGTDFTLTISSLQPEDFATYYCQQSYENPLTFGGGTKVEIK is 2.27

Looking up 374_A10 (antibody, V domains shown, Group II) VH: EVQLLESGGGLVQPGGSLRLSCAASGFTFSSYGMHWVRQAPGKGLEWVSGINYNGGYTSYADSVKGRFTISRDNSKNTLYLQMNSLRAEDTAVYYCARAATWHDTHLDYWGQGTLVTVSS VL: DIQMTQSPSSLSASVGDRVTITCRASQSILSYVNWYQQKPGKAPKLLIYAATSRASGVPSRFSGSGSGTDFTLTISSLQPEDFATYYCQQSYDTPLTFGGGTKVEIK , I found its optical density recorded as 3.56
